protocol_description: Half life in mouse liver microsomes
Format: ADME, Microsome
log10 t1/2 values for the compounds below.
measure: log10 t1/2 (log10 of the value in min)

COc1ccccc1OCc1ccc(C(C)(C)NC(=O)c2ccc([N+](=O)[O-])o2)cc1 : 1.06
O=C(Nc1cc2ccccc2s1)c1ccc([N+](=O)[O-])o1 : 0.27
CC(C)(NC(=O)c1ccc([N+](=O)[O-])o1)c1ccccc1 : 1.87
O=C(Nc1ccc2ccccc2c1)c1ccc([N+](=O)[O-])o1 : 0.33
O=C(NCc1ccccc1)c1ccc([N+](=O)[O-])o1 : 1.45
COc1ccc(OCc2ccc(C(C)(C)NC(=O)c3ccc([N+](=O)[O-])o3)cc2)cc1 : 1.65
